Recorded IC50, one value per entry.
TEST_TARGET: Human plasma kallikrein (Homo sapiens (Human), UniProt P03952)
Sequence (P03952 391-638): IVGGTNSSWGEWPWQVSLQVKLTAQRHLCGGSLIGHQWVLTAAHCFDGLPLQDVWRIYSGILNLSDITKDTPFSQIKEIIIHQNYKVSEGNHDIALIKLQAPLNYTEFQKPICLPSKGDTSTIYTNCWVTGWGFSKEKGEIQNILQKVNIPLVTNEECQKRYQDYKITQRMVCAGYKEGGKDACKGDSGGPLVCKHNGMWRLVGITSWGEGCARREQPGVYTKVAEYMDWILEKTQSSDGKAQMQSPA
Sequence (P03952 20-390 partner): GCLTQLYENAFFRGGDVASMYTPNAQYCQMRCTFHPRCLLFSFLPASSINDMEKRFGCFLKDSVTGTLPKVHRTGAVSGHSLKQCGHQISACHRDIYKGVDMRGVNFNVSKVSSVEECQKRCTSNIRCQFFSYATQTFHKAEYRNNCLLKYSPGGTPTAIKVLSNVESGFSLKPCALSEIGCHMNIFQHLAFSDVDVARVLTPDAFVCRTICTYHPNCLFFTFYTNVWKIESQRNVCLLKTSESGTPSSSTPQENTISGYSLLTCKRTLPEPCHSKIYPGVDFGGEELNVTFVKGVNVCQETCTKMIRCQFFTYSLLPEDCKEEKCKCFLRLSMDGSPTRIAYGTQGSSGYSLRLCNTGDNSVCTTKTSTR
ASSAY_TEXT: Determination of the IC50 for plasma kallikrein
CONDITION_NOTES: 37° C., fluorogenic substrate H-DPro-Phe-Arg-AFC; read-out: IC50 (human PKal)
Numbers only here, please. The scale is nM.

Before answering, review these 2 worked examples.
[
  {
    "SMILES_STRUCTURE": "Cc1cc(C(=O)NCc2ccc(CN)cc2)c(C)n1Cc1cc(-c2ccccc2)cs1",
    "IC50 (nM)": 543
  },
  {
    "SMILES_STRUCTURE": "Cc1cc(C(=O)NCc2ccc(CN)cc2)c(C)n1Cc1ccc(-c2ccncc2)s1",
    "IC50 (nM)": 4520
  }
]

[ask] // returns reported IC50 for input `Cc1cc(C(=O)NCc2ccc(CN)cc2)c(C)n1Cc1csc(-c2ccoc2)n1`
[reply] 1090
